Attribute: self-cleavage
B1: OR4K15 (parent)
chain: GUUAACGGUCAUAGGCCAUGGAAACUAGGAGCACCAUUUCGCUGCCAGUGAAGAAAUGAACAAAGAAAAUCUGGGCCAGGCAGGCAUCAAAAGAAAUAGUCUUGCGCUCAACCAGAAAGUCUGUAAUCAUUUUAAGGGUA

- Variants of: B1
- ASSAY_REMARKS: self-cleavage, relative activity (ratio to wild type); higher = more cleavage; in vitro, sequencing; the parent is a self-cleaving ribozyme

Illustrative cases are given below, each with its answer.
>  <CHANGES>
U26A A98G

>  <self-cleavage>
0.3

$$$$
>  <CHANGES>
G7U A116U

>  <self-cleavage>
0.38

$$$$
>  <CHANGES>
A82G C121U

>  <self-cleavage>
0.91

$$$$
>  <CHANGES>
A33U A95G

>  <self-cleavage>
1.66

$$$$
>  <CHANGES>
A18G A111G

>  <self-cleavage>
0.03

$$$$
>  <CHANGES>
U102A U120C

>  <self-cleavage>
0.37

$$$$
>  <CHANGES>
A66G A90U

>  <self-cleavage>
1.31

$$$$
>  <CHANGES>
G44A G84U

>  <self-cleavage>
0.93

$$$$

Request the reported self-cleavage associated with A22G C34U
1.33

// repeat for U19G A24G and report
1.16

Subsequent entry: U43A A126U
1.41

Lookup A89C U139C
1.52

The measured values listed here are drawn from the RNAGym collection of RNA variant scans (doi:10.7554/elife.90254).
